Hey, just so you know, these numbers are from PubChem BioAssay.

# target system: Dual specificity protein phosphatase 6 (Homo sapiens)
# assay protocol: DUSP6 inhibitors restoring Erk phosphorylation by chemical complementation, primary imaging in DUSP6-transfected HeLa (AID 609);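 note: phospho-Erk level distribution per well compared with pooled transfected vehicle control wells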
# experimental conditions: HeLa MKP-3 transfected, phospho-Erk imaging KS statistic; at 10 µM; stronger effect = higher value; cells stimulated with TPA for 15 min
Can you tell me inhibition for the items I'm about to list?
Report the value in % with no unit label.

Answer with the recorded inhibition of COc1ccc(C(=O)c2ccc(N3CCOCC3)cc2)c(OC)c1 only. 5.95

Answer with the recorded inhibition of CCCCC(=O)C1CCN(Cc2ccccc2)CC1 only. -0.584

Answer with the recorded inhibition of Cc1cc(C)n(CC2CC(=O)N(c3ccc(C)c(Cl)c3)C2=O)n1 (stereo unspecified) only. 12.8

Answer with the recorded inhibition of Cn1ncc(N=Cc2ccccc2O)c1C(=O)N1CCOCC1 only. 7.93

Answer with the recorded inhibition of C=CCOc1ccc(/C(O)=C2/C(=O)C(=O)N(CCCN3CCOCC3)C2c2ccccc2)cc1 (stereo unspecified) only. 7.73

Answer with the recorded inhibition of CC1CCN(c2ncnc3c2cnn3Cc2ccc(Cl)cc2)CC1 only. 13.9

Answer with the recorded inhibition of O=C(CN1CCc2[nH]c3ccccc3c2C1)N1CCCCC1 only. 3.42

Answer with the recorded inhibition of Cn1c(=O)c2c(nc(NCc3ccco3)n2Cc2ccc(Cl)cc2Cl)n(C)c1=O only. 12.8

Answer with the recorded inhibition of CN(C)C(=O)COn1c(SCC(=O)N(C)C)nc2ccccc2c1=O only. 0.671

Answer with the recorded inhibition of CCc1nc2c(sc3nc(N4CCOCC4)c4c(c32)CC(C)(C)OC4)c(=O)o1 only. 3.42

Answer with the recorded inhibition of CCOC(=O)NC(Nc1cc(C)on1)(C(F)(F)F)C(F)(F)F only. -11.4
